Entry source: patent US20030148958A1

Target: T1, CRF2R
T1 sequence (Q13324 whole entry, species assumed, looked up): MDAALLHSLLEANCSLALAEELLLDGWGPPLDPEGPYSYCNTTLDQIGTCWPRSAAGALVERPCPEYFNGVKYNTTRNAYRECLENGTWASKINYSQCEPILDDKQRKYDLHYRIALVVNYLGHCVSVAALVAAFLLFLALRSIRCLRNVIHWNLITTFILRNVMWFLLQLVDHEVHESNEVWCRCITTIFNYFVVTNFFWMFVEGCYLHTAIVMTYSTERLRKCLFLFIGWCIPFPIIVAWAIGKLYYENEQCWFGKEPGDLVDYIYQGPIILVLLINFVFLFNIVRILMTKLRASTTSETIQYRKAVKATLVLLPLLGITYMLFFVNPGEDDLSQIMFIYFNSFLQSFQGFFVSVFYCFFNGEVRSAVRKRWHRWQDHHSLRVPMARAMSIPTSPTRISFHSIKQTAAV
Experiment: cell-based or functional assay
Ends that are not written are not given here.
Provide the recorded CRF2R EC50 for the entries that follow.
Numbers only, in µM.

{"columns": ["binder", "CRF2R EC50 / µM"],
 "data": [
  ["ZGPPISIDLPFQLLRKVIEIEKQEKEKQQAANNAKLLAKI (not fully specified; C-terminal amide) [SEQ ID NO 274]", 0.0138]
]}

Provide reported CRF2R EC50 for each item, in the same order as listed.
1. ZGPPISIDLPFQLLRKVIEIEKQEKEKQQAANNAQLLAHI (not fully specified; C-terminal amide) [SEQ ID NO 273]
2. ZGPPISIDLPIFLLRKVIEIEKQEKEKQQAANNARLLARI (C-terminal amide) [SEQ ID NO 281]
3. ZGPPISIDLPYWLLRKMIEIEKQEKEKQQAANNRLLLDTI (C-terminal amide) [SEQ ID NO 215]
4. DNPSLSIDLPLFLLRTLLELARTQSQRERAEQNARIFARV-NH2 [SEQ ID NO 329]
5. DNPSLSIDVPLFLLRTLLELEKTQSQRERAEQNARIFARV-NH2 [SEQ ID NO 385]
6. ZGPPISIDLPQILLRKMIEIEKQEKEKQQAANNARLLARI (C-terminal amide) [SEQ ID NO 285]
7. ZGPPISIDLPTYLLRILIEIEKQEKEKQQAANNRLLLDTI (not fully specified; C-terminal amide) [SEQ ID NO 252]
8. DNPSLSIDVPLYLLRTLLELEKTQSQRERAEQNARIFARV-NH2 [SEQ ID NO 387]

# output
1: 0.0313; 2: 0.1; 3: 0.004; 4: 0.00515; 5: 0.0103; 6: 0.0139; 7: 0.0223; 8: 0.0179

Return reported CRF2R EC50 values for all items listed beneath this line.
1. IVLSLDVPIGLLQILLEQARHAAAHAAAHAQAHILAHV-NH2 [SEQ ID NO 367]
2. ZGPPISIDLPFQLLRKAIEIEKQEKEKQQAANNALLLDTI (C-terminal amide) [SEQ ID NO 365]
3. ZGPPISIDLPYHLLRKMIEIEKQEKEKQQAANNALLLAT (C-terminal amide) [SEQ ID NO 315]

# output
[0.1, 0.0234, 0.00935]
